# assay.procedure: Partition coefficient (logD), n-octanol/PBS pH 7.4
# Type: physicochemical
# test.settings: 68Ga-labeled compounds, mean ± SD, read-out: Partition Coefficient [logDoctanol/PBS]
Non-standard residues stand in square brackets, D forms with d. Residues, ends and D or L forms follow the SMILES beside them. *: point of attachment. DOTA = O=C(O)CN1CCN(CC(=O)O)CCN(CC(=O)*)CCN(CC(=O)O)CC1; EuK = O=C(O)CC[C@H](NC(=O)N[C@@H](CCCCN*)C(=O)O)C(=O)O; 2Nal = N[C@@H](Cc1ccc2ccccc2c1)C(=O)O; Trx = NC[C@H]1CC[C@H](C(=O)O)CC1
metric: logD
Give bare numbers.

(Q) Entry under review: O=C(O)CC[C@H](NC(=O)N[C@@H](CCCCNC(=O)[C@H](CCC(=O)O)NC(=O)[C@H](CCC(=O)O)NC(=O)[C@H](CCC(=O)O)NC(=O)[C@H](Cc1ccc2ccccc2c1)NC(=O)[C@H]1CC[C@H](CNC(=O)CN2CCN(CC(=O)O)CCN(CC(=O)O)CCN(CC(=O)O)CC2)CC1)C(=O)O)C(=O)O [PS6, EuK-E3-NaI-ChX-DOTA] ({DOTA-Trx}-[2Nal]EEE-EuK) . Reported logD?
(A) -3.1
